# System: cocklebur
# procedure.summary: Test B pre-/postemergence herbicide test
# Assay type: in vivo, Xanthium strumarium
# condition.notes: 125 g ai/ha; visual rating, scale 0 (no effect) to 100 (complete control); postemergence
assay.readout: Cocklebur plant response rating

compound=CCNC(=O)c1cccc(NC(=O)c2cc(C3(C)CC3)nn2CC)c1 measured_result=30
compound=CCn1nc(C(C)(C)C)cc1C(=O)Nc1cc(OCCF)ccc1F measured_result=0
compound=CCn1nc(C(C)(C)C)cc1C(=O)Nc1cc(C(=S)N(C)C)ccn1 measured_result=20
compound=CCn1nc(C2(C)CC2)cc1C(=O)Nc1cc(C(=O)N(C)C)ccc1F measured_result=20
compound=CCNC(=O)c1ccc(F)c(NC(=O)c2cn(C(C)(C)C)nc2C)c1 measured_result=0
compound=CCNC(=O)c1ccc(F)c(NC(=O)c2nn(C(C)(C)CC)nc2CC)c1 measured_result=0
compound=CCNC(=O)c1cccc(NC(=O)c2nn(C(C)(C)C)nc2C)c1 measured_result=20
compound=CCc1nn(C(C)(C)C)cc1C(=O)Nc1cc(C(=O)N(C)C)ccn1 measured_result=20
compound=C=CCNC(=O)c1ccc(F)c(NC(=O)c2nn(C(C)(C)C)nc2CC)c1 measured_result=0
compound=CCNC(=O)c1ccc(F)c(NC(=O)c2nn(C(C)(C)C)nc2CC)c1 measured_result=10
compound=Cc1nn(C(C)C)nc1C(=O)Nc1cc(C(=O)N(C)C)ccc1F measured_result=0
compound=CCc1nn(C(C)(C)C)nc1C(=O)Nc1cccc(C(=O)N2CC=CC2)c1 measured_result=30
compound=CCc1nn(C(C)(C)C)nc1C(=O)Nc1cccc(C(=O)N(C)CC)c1 measured_result=30
compound=CCn1nc(C(C)(C)C)cc1C(=S)Nc1cc(C(=S)N(C)C)ccc1F measured_result=10
compound=Cc1nn(C(C)C)nc1C(=O)Nc1cccc(C(=O)N2CC=CC2)c1 measured_result=20
compound=CCNC(=O)c1ccc(F)c(NC(=O)c2c3c(nn2CC)C(C)(C)CC3)c1 measured_result=10
compound="CCOC(=O)c1ccc(F)c(NC(=O)C2CN(C(C)(C)C)N=C2CC)c1 (racemic)" measured_result=10
